recordedMetric: melting point

Cc1oc(-c2ccccc2)nc1CCc1ccc(COc2ccccc2CC(=O)O)cc1 [Example 97] = 130 to 131 °C
COC(=O)Cc1ccccc1OCc1cncc(OCc2nc(-c3ccccc3)oc2C)c1 [Example 42] = 77 to 78 °C
Cc1nn(-c2ccccn2)cc1COc1ccc(COc2ncccc2CC(=O)O)cc1 [Example 126] = 150 to 151 °C

Would you kindly look at the next entry?
# input Entry under review: CCOc1cc(OCc2cccc(OCc3nc(-c4ccccc4)oc3C)c2)ccc1CCC(=O)O [Example 71] . Reported melting point?
# output 122 to 123 °C

----------
recordedMetric: melting point

Recorded melting point, per entry:
COC(=O)Cc1cc(OC)ccc1OCc1ccc(OCc2nc(-c3ccccc3)oc2C)cc1 [Example 23] = 160 to 161 °C
Cc1oc(-c2ccccc2)nc1COc1cccc(COc2ccc(CC(=O)O)cc2)c1 [Example 68] = 179 to 180 °C
Cc1oc(-c2ccccc2)nc1COc1cc(COc2cccc(CC(=O)O)c2)ccn1 [Example 62] = 148 to 149 °C

# input Give the measured melting point of Cc1sc(-c2ccccc2)nc1COc1ccc(COc2ccccc2CC(=O)O)cc1 [Example 52] .
# output 122 to 123 °C

----------
Below is a list of entries, each paired with its recorded melting point value.

// solved cases for melting point follow
Cc1oc(-c2ccccc2)nc1COc1cccc(COc2ccccc2CC(=O)O)c1 = 117 to 118 °C
Cc1oc(-c2ccccc2)nc1COc1cncc(COc2ccc(CC(=O)O)cc2)c1 = 141 to 142 °C
CCCc1oc(-c2ccccc2)nc1COc1ccc(COc2cccc(CC(=O)O)c2)cc1 = 115 to 116 °C
Cc1oc(-c2ccccc2)nc1CCOc1ccc(COc2ccccc2CC(=O)O)cc1 = 141 to 142 °C
Cc1oc(-c2ccccc2)nc1COc1ccc(COc2ccc(Br)cc2CC(=O)O)cc1 = 162 to 163 °C
CCOc1ccc(OCc2ccc(OCc3nc(-c4ccccc4)oc3C)cc2)cc1CCC(=O)O = 129 to 130 °C

# input Suppose we examine the compound "Cc1oc(-c2ccccc2)nc1COc1cccc(CSc2cccc(CC(=O)O)c2)c1" ; what melting point value has been reported?
# output 81 to 82 °C

# input Next entry: "Cc1oc(-c2ccccc2)nc1COc1cc(COc2ccccc2CC(=O)O)on1"
# output 152 to 153 °C

----------
- System: KKA^y mice
- experiment: Total cholesterol lowering action and plasma anti-arteriosclerosis index enhancing action in mice (Test Example 2)
- Assay type: in vivo
- measurementContext: Mus musculus, po, 96 h, percent increase of [(HDL cholesterol/total cholesterol)×100] vs non-administration group, 0.01% in powdery diet, four days
recordedMetric: change in vivo at 0.01 % (%)
Write it as a number; the unit % goes unstated.

Here are 3 compounds together with their reported answers.
CCOc1ccc(OCc2ccc(OCc3nc(-c4ccccc4)oc3C)cc2)cc1CCC(=O)O = 15
Cc1oc(-c2ccccc2)nc1COc1cccc(COc2cccc(CC(=O)O)c2)c1 = 10
CCOc1ccc(OCc2ccc(OCc3nc(-c4ccccc4)oc3C)cc2)c(CCC(=O)O)c1 = 20

With those in mind, consider the next compound.
# input Item under review: "CCOc1ccc(OCc2ccc(OCc3nc(-c4ccccc4)oc3C)cc2)c(CC(=O)O)c1" . Reported change in vivo at 0.01 %?
# output 16

----------
- System: KKA^y mice
- experiment: Total cholesterol lowering action and plasma anti-arteriosclerosis index enhancing action in mice (Test Example 2)
- Type: in vivo
- measurementContext: Mus musculus, po, 96 h, percent reduction of plasma total cholesterol level vs non-administration group, 0.005% in powdery diet, four days
Some compounds, each annotated with its measured inhibition in vivo at 0.005 %.
Expressed in %, but write only the number.

# input Need inhibition in vivo at 0.005 %, item Cc1oc(-c2ccccc2)nc1CCOc1ccc(COc2ccccc2CC(=O)O)cc1 [Example 58]
# output 20

# input Next: Cc1oc(-c2ccccc2)nc1COc1cc(COc2cccc(CC(=O)O)c2)ccn1 [Example 62]
# output 9

# input Further, for O=C(O)Cc1ccccc1OCc1ccc(OCc2csc(-c3ccccc3)n2)cc1 [Example 51] ?
# output 24

# input What do you get for COc1ccc(OCc2ccc(OCc3nc(-c4ccccc4)oc3C)cc2)c(CC(=O)O)c1 [Example 24] ?
# output 10

# input Try this compound next: Cc1oc(-c2ccccc2)nc1COc1ccc(COc2cccnc2CC(=O)O)cc1 [Example 37]
# output 15

# input Please give the result for Cc1oc(-c2ccco2)nc1COc1ccc(COc2ccccc2CC(=O)O)cc1 [Example 50] too.
# output 20

----------
Measured melting point, listed per entry for reference.

Answered cases to consult:
CCCc1ccc(OCc2ccc(OCc3nc(-c4ccccc4)oc3C)cc2)c(CC(=O)O)c1 [Example 83] = 116 to 117 °C
COC(=O)Cc1cc(Br)ccc1OCc1ccc(OCc2nc(-c3ccccc3)oc2C)cc1 [Example 19] = 100 to 101 °C
Cc1oc(-c2ccccc2)nc1COc1ccc(COc2ncccc2CC(=O)O)cc1 [Example 36] = 144 to 145 °C
Cc1oc(-c2ccccc2)nc1COc1ccccc1COc1ccc(CC(=O)O)cc1 [Example 69] = 173 to 174 °C
Cc1oc(-c2ccccc2)nc1COc1ccc(COc2ccc3ccccc3c2CCC(=O)O)cc1 [Example 47] = 161 to 162 °C
CCOc1ccc(OCc2ccc(OCc3nc(-c4ccccc4)oc3C)cc2)c(CC(=O)O)c1 [Example 26] = 122 to 123 °C
CCOC(=O)CCc1cccc(OCc2ccc(OCc3nc(-c4ccccc4)oc3C)cc2)c1 [Example 2] = 90 to 91 °C
Cc1oc(-c2ccccc2)nc1CCc1nc(COc2cccc(CC(=O)O)c2)cs1 [Example 105] = 153 to 154 °C
CCOC(=O)CCc1c(OCc2ccc(OCc3nc(-c4ccccc4)oc3C)cc2)ccc2ccccc12 [Example 46] = 86 to 87 °C
Cc1oc(-c2ccco2)nc1COc1ccc(COc2ncccc2CC(=O)O)cc1 [Example 92] = 151 to 152 °C

# input I have this molecule here, COc1cc(COc2ccccc2CC(=O)O)ccc1OCc1nc(-c2ccccc2)oc1C [Example 48] , and I need its recorded melting point.
# output 165 to 166 °C

# input What do you get for CCOC(=O)CCc1ccc(OCc2ccc(OCc3nc(-c4ccccc4)oc3C)cc2)cc1OCC [Example 65] ?
# output 64 to 65 °C

# input Now give it for COC(=O)Cc1ccc(OCc2ccc(OCc3nc(-c4ccccc4)oc3C)cc2)cc1 [Example 8] too.
# output 93 to 94 °C

# input Further, for COC(=O)Cc1cccc(OCc2ccc(OC)c(OCc3nc(-c4ccccc4)oc3C)c2)c1 [Example 131] ?
# output 88 to 89 °C

# input Please do the same for CCOC(=O)CCc1ccc(OCc2ccc(OCc3nc(-c4ccccc4)oc3C)cc2)cc1 [Example 44] as well.
# output 105 to 106 °C

# input Repeat for the following molecule: COC(=O)Cc1ccccc1OCc1ccc(N(Cc2nc(-c3ccccc3)oc2C)C(=O)OC(C)(C)C)cc1 [Example 59]
# output 85 to 86 °C

# input And what about the molecule CCOC(=O)C=Cc1c(OCc2ccc(OCc3nc(-c4ccccc4)oc3C)cc2)ccc2ccccc12 [Example 54] ?
# output 73 to 74 °C

----------
recordedMetric: melting point

Cc1oc(-c2ccc3ccccc3c2)nc1COc1ccc(COc2ncccc2CC(=O)O)cc1 = 155 to 156 °C
Cc1sc(-c2ccccc2)nc1COc1cc(COc2ccccc2CC(=O)O)on1 = 147 to 148 °C
Cc1oc(-c2ccccc2)nc1COc1ccc(COc2ncccc2CC(=O)[O-])cc1.[K+] = 157 to 159 °C
Cc1oc(-c2ccccc2)nc1COc1ccc(OCc2ncccc2CC(=O)O)cc1 = 126 to 127 °C
Cc1oc(-c2ccccc2)nc1COc1ccc(COc2ccc(O)cc2CC(=O)O)cc1 = 194 to 195 °C
Cc1oc(-c2ccco2)nc1COc1cc(COc2cccc(CC(=O)O)c2)ccn1 = 136 to 137 °C

# input Recorded melting point for "Cc1oc(-c2ccccc2)nc1COc1cccc(CSc2cccc(CCC(=O)O)c2)c1" , please?
# output 120 to 121 °C

# input Now the same for "Cc1oc(-c2ccccc2)nc1COc1ccc(COc2ccc(CCC(=O)O)cc2)cc1"
# output 177 to 178 °C

----------
recordedMetric: melting point

Look over these answered cases.
Cc1oc(-c2ccccc2)nc1COc1ccc(CSc2ccc(CCC(=O)O)cc2)cc1 [Example 67] = 157 to 158 °C
Cc1oc(-c2ccccc2)nc1COc1ccc(COc2ccc(-c3ccccc3)cc2CC(=O)O)cc1 [Example 22] = 102 to 103 °C
CCOc1ccc(OCc2ccc(OCc3nc(-c4ccccc4)oc3C)cc2)cc1CC(=O)OC [Example 4] = 82 to 83 °C
Cc1oc(-c2ccccc2)nc1CCc1nc(COc2ccccc2CC(=O)O)co1 [Example 99] = 109 to 110 °C
Cc1oc(-c2ccccc2)nc1COc1ccc(COc2ccc3ccccc3c2CC(=O)O)cc1 [Example 39] = 187 to 188 °C

# input Form field: reported melting point of Cc1oc(-c2ccccc2)nc1COc1ccc(COc2cccnc2CC(=O)O)cc1 [Example 37]
# output 115 to 116 °C (dec.)

# input Please give the result for COc1ccc(COc2cccc(CC(=O)O)c2)cc1OCc1nc(-c2ccccc2)oc1C [Example 132] too.
# output 114 to 115 °C

# input Now the same for Cc1oc(-c2ccccc2)nc1COc1cncc(COc2ccccc2CC(=O)O)c1 [Example 43]
# output 207 to 208 °C

# input What would you report for Cc1ccc(OCc2ccc(OCc3nc(-c4ccccc4)oc3C)cc2)c(CC(=O)O)c1 [Example 15] ?
# output 115 to 116 °C

# input // next record CCCc1oc(-c2ccccc2)nc1COc1ccc(COc2ccccc2CC(=O)O)cc1 [Example 85]
# output 129 to 130 °C
